I'd be grateful if you could share measured melting point for these entries.
Enter your answer as a number in °C; do not include the unit.

Return the recorded melting point value; entry: O=C(O)c1ccc(F)cc1O 191

Return the recorded melting point value; entry: NNc1c(Cl)cc(Cl)cc1Cl 142

Return the recorded melting point value; entry: O=[N+]([O-])c1cc(Cl)c(O)c(Cl)c1 127

Return the recorded melting point value; entry: C/C=C/c1nc(O)n(-c2ccccc2)n1 188

Return the recorded melting point value; entry: Cc1c(C)c(C)c(Br)c(Br)c1C 72

Return the recorded melting point value; entry: CN(C)c1ccc(C=C2C(=O)NN=C2c2c(O)c3ccccc3n(C)c2=O)cc1 262

Return the recorded melting point value; entry: Cc1ccccc1C(C)(C)C -50

Return the recorded melting point value; entry: CC1=CC(C)(C)Nc2ccccc21 26.5

Return the recorded melting point value; entry: CCOC(=O)/C(C#N)=C/c1ccc(-c2ccc(Br)cc2)o1 167

Return the recorded melting point value; entry: CN(C)C(=O)COC1CCN(C(=O)OC(C)(C)C)CC1 58

Return the recorded melting point value; entry: COc1cc(Cc2nccc3cc(OC)c(O)cc23)ccc1O 209

Return the recorded melting point value; entry: CCCCCCCCCC(=O)OCC -20

Return the recorded melting point value; entry: Cc1ccc(C(=O)N(C)C)cc1 41

====

I'd be grateful if you could share measured melting point for these entries.

Return the recorded melting point value; entry: O=[N+]([O-])c1ccc2ccccc2c1O 123 to 125 °C

Return the recorded melting point value; entry: S=C=Nc1ccc2nsnc2c1 96 to 97 °C

Return the recorded melting point value; entry: Clc1nc(Cl)c2nc[nH]c2n1 184 to 186 °C

====

I'd be grateful if you could share measured melting point for these entries.

Return the recorded melting point value; entry: CC(=O)Nc1ccc(C(F)(F)F)cc1N 141 to 143 °C

Return the recorded melting point value; entry: CC(C)(C)OC(=O)NC(=O)OC(C)(C)C 114 to 117 °C

Return the recorded melting point value; entry: CCOC(=O)C1=C(C)NC(=O)NC1C (configuration not stated) 189 to 190 °C

Return the recorded melting point value; entry: O=Cc1csc2ccc(Br)cc12 106 to 107 °C

Return the recorded melting point value; entry: O=C1OC(/C=C/c2ccc([N+](=O)[O-])cc2)Cc2ccccc21 (configuration not stated) 180 to 182 °C

Return the recorded melting point value; entry: COC(=O)c1sc2scc(C)c2c1C 136 to 139 °C

Return the recorded melting point value; entry: O=c1[nH]c(=O)n(C2CC(O)C(CO)O2)cc1Br (configuration not stated) 192 °C

Return the recorded melting point value; entry: c1cc2c(cc1OC1OCC3C(c4ccc5c(c4)OCO5)OCC13)OCO2 (configuration not stated) 93.5 °C

Return the recorded melting point value; entry: CCCSc1sc(C(=O)OC)c2c1C(=O)CC(C)(C)C2 95 to 98 °C

Return the recorded melting point value; entry: N#C/C(=C/c1ccc(Cl)cc1Cl)c1nc(-c2ccc([N+](=O)[O-])cc2)cs1 210 °C

Return the recorded melting point value; entry: O=Nc1ccc2c(O)ccc(N=O)c2c1O 250 °C

Return the recorded melting point value; entry: N#Cc1cc(Br)ccc1O 160 to 162 °C

Return the recorded melting point value; entry: COc1ccccc1Cl -26.8 °C

Return the recorded melting point value; entry: COC(=O)c1ccc2c(c1)OCO2 53 °C

Return the recorded melting point value; entry: Nc1cc(Cl)c(Cl)cc1[N+](=O)[O-] 181 °C

Return the recorded melting point value; entry: NC1=NCC2c3ccccc3Cc3ccccc3N12 (configuration not stated) 206 °C

Return the recorded melting point value; entry: N#CC(C#N)=C(C(=O)Cc1ccccc1)c1ccc([N+](=O)[O-])cc1 332 to 334 °C

Return the recorded melting point value; entry: Cc1cccc(N=Nc2ccc(N(C)C)cc2)c1 138 °C

Return the recorded melting point value; entry: N#CC(N)=C(N)C#N 178 to 179 °C

Return the recorded melting point value; entry: COc1ccc(-c2nn3c(COc4ccccc4)nnc3s2)cc1OC 106 °C

Return the recorded melting point value; entry: CC(C)(C)OC(=O)N1CCSCC1C(=O)O (configuration not stated) 145 to 147 °C

Return the recorded melting point value; entry: O=[N+]([O-])c1ccc2ncccc2c1 154 °C

Values from a melting point compilation (Tetko et al.)
